Where do these numbers come from? They come from patent US20100016396A1.

target-desc: PPARγ-RXRα heterodimer (Homo sapiens, UniProt P37231)
Sequence (P37231 whole entry): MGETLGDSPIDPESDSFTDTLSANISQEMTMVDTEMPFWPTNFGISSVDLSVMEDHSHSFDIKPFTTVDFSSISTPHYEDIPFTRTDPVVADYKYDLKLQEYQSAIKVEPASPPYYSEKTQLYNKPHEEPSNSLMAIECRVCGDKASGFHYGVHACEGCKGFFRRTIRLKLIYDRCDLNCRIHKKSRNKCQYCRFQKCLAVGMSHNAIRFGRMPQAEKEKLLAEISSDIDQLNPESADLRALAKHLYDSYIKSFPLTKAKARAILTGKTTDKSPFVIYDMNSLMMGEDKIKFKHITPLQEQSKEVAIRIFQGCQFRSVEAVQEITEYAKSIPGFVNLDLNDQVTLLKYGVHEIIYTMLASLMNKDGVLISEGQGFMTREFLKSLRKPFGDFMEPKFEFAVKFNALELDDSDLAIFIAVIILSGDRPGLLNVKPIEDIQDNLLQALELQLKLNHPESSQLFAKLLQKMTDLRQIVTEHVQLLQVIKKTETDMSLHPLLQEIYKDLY
Sequence (P19793 whole entry partner): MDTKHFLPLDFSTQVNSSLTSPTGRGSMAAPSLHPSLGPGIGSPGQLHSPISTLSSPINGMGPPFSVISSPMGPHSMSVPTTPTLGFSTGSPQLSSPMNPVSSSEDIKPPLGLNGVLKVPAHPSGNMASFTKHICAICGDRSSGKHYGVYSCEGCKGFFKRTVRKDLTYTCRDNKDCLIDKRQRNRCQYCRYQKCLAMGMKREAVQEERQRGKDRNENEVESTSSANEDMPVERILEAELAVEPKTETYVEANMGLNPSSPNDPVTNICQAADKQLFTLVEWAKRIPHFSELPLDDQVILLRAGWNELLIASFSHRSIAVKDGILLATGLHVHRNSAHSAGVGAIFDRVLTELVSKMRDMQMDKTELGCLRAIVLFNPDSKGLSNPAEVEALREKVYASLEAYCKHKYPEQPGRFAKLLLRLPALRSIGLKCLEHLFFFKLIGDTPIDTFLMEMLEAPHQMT
method-summary: PPARγ-RXRα heterodimer ligand activity (luciferase reporter in PPARγ:RXRα:4ERPP/CHO-K1 cells)
conditions-used: luciferase induction ratio, 1 day culture, concentration showing 50% of the maximum induction ratio
Entries and their measured pEC50 follow.
Notebook: values listed as pEC50 are -log10 of the concentration (mol/L).

[ask] State its pEC50 on PPARγ-RXRα heterodimer (Homo sapiens, UniProt P37231): CON=Cc1c(C)nn(C)c1Oc1cc(O[C@@H](C)C(=O)O)c(Cl)cc1Cl [Example 123]
[reply] 8.39

[ask] Notebook entry, PPARγ-RXRα heterodimer (Homo sapiens, UniProt P37231) assay: pEC50 of C=Cc1c(C(C)C)nn(C)c1Oc1cc(O[C@@H](C)C(=O)O)c(Cl)cc1Cl [Example 43] = ?
[reply] 8.34

[ask] Record C=Cc1c(CCC)nn(C)c1Oc1cc(O[C@@H](C)C(=O)O)c(Cl)cc1Cl [Example 41] : what is its pEC50 with PPARγ-RXRα heterodimer (Homo sapiens, UniProt P37231)?
[reply] 8.62

[ask] Fill in the recorded pEC50 for this molecule, with PPARγ-RXRα heterodimer (Homo sapiens, UniProt P37231) as test system: Cc1nn(C)c(Oc2cc(O[C@@H](C)C(=O)O)c(Cl)cc2Cl)c1C#N [Example 106]
[reply] 6.92

[ask] Hi! What's the reported pEC50 for Cc1cc(Br)c(O[C@@H](C)C(=O)O)cc1Oc1c(C#N)c(C2CC2)nn1C [Example 256] on PPARγ-RXRα heterodimer (Homo sapiens, UniProt P37231)?
[reply] 7.66
